Protocol Text: in vitro
Run Conditions: mouse, microsomes, pH 7.4
Where a SMILES comes first, the peptide text is derived from it. [ ]: non-standard residue; d: D form. The star is where a group is joined. d(aIle) = CC[C@H](C)[C@@H](N)C(=O)O; X1 = CC[C@H](C)CCCCC(=O)*; dDab = NCC[C@@H](N)C(=O)O; Dab = NCC[C@H](N)C(=O)O
Attribute Measured: remaining at 2 h (%)
Numbers only, in %.

Consider the molecule shown here: CC[C@H](C)CCCCC(=O)NCC(=O)N[C@H](CCN)C(=O)NCC(=O)N[C@H](CO)C(=O)N[C@H](Cc1c[nH]c2ccccc12)C(=O)N[C@@H](CO)C(=O)N[C@@H](CCN)C(=O)N[C@H](CCN)C(=O)N[C@H](C(=O)N[C@@H](CCC(=O)O)C(=O)N[C@H](C(=O)N[C@@H](C(=O)N[C@@H](CO)C(=O)O)[C@@H](C)CC)[C@@H](C)CC)[C@@H](C)CC [Tridecaptin M, tridecaptin M] (X1-G[dDab]G[dS][dW]S[Dab][dDab]IEI[d(aIle)]S-OH) What is its recorded remaining at 2 h?
74.7

Where these numbers come from: paper PMC12486805
